# test-method-notes: Aqueous solubility in 50 mM phosphate buffer pH 7.4
# Assay type: physicochemical
# setup-conditions: phosphate buffer, 25 °C, pH 7.4, aqueous buffer, thermodynamic from solid; as restated in conclusions
measurement-name: solubility at 24 h (µg/mL)
Could you give me the number in µg/mL? Just the number is fine.

Quick one: solubility at 24 h of `Cc1nc(COC(=O)C(C)(C)C)c(C)nc1CO` ?
8000

---

# test-method-notes: Capacity factor (k') by HPLC (lipophilic index)
# Format: physicochemical
# setup-conditions: n = 3, mean ± SD
measurement-name: Capacity Factor

Some entries whose results are on file:
CCCCCCCCCC(=O)OCc1nc(C)c(COC(=O)CCCCCCCCC)nc1C    1.068 ± 0.057
CCCCCCCCCCCC(=O)OCc1nc(C)c(CO)nc1C    0.514 ± 0.012

Quick one: Capacity Factor of `Cc1nc(COC(=O)C(C)(C)C)c(C)nc1CO` ?
0.210 ± 0.020

Also, `CCCCCCCCCCCCCCCCCC(=O)OCc1nc(C)c(COC(=O)CCCCCCCCCCCCCCCCC)nc1C` please.
6.134 ± 0.084

Also, `CCCCCCCCCCCCCCCC(=O)OCc1nc(C)c(CO)nc1C` please.
0.834 ± 0.012
